// data source = the supplement of paper PMC10878532

Each entry below carries its recorded total motile sperm.
test system: human spermatozoa; assay: total motile sperm, percent change vs DMSO (non-capacitating); higher = more of the measured sperm population than DMSO, for viability, fewer PI-positive (dead) cells than DMSO; conditions: incubation time: 10min incubation, 9.99 µM
Record the value in %, omitting the unit from your answer.

Consider the reported total motile sperm for these compounds:
Compound	total motile sperm / %
CC1(C)CC=C(c2ccccc2)c2cc(/C=C/c3ccc(C(=O)O)cc3)ccc21	2.52
COCC(=O)O[C@]1(CCN(C)CCCc2nc3ccccc3[nH]2)CCc2cc(F)ccc2[C@@H]1C(C)C	-1.6
Nc1ncnc2c1c(-c1cccc(OCc3ccccc3)c1)cn2[C@H]1C[C@@H](CN2CCC2)C1	-0.708

Incoming: // map CCCCCCCCOc1ccc(-c2noc([C@@H]3CCCN3C(=N)N)n2)cc1C(F)(F)F to recorded total motile sperm (system: human spermatozoa)
Outgoing: 0.514

Incoming: Also Cc1ccc(S(=O)(=O)c2ccc([N+](=O)[O-])o2)cc1 ?
Outgoing: -0.166

###

Each entry below carries its recorded progressively motile sperm.
tested on: human spermatozoa; assay: progressively motile sperm, percent change vs DMSO (non-capacitating); higher = more of the measured sperm population than DMSO, for viability, fewer PI-positive (dead) cells than DMSO; extreme values may be limits of the assay; conditions: incubation time: 6h incubation, 29.9 µM
Structures can show the parent of a compound that is named as a salt.
Record the value in %, omitting the unit from your answer.

> print(dat)
                                   compound  quantitative.result
1  CCOc1ccc(-c2nc(-c3cccc4c3CCC4NCCO)no2)cc1OCC (configuration not stated) [CYM 5442 hydrchloride]                 21.7

Incoming: Please look up its progressively motile sperm: COc1cc(C(=O)N2CCC(N3CCN(C)CC3)CC2)ccc1Nc1ncc2c(n1)N(C)c1ccccc1C(=O)N2C
Outgoing: 43.3

Incoming: Also [O]=[V]([O-])([O-])[O-] [Sodium orthovanadate] ?
Outgoing: 10.3

Incoming: Also CCOCc1nc2c(N)nc3ccccc3c2n1CC(C)(C)O ?
Outgoing: -83.9

Incoming: Also CN(c1ccccc1CNc1nc(Nc2ccc3c(c2)CC(=O)N3)ncc1C(F)(F)F)S(C)(=O)=O ?
Outgoing: 24.4

Incoming: Also Cc1ccc(S(=O)(=O)c2ccc([N+](=O)[O-])o2)cc1 ?
Outgoing: -100

Incoming: Also O=c1c(-c2ccc(O)cc2)coc2cc(O)cc(O)c12 ?
Outgoing: 2.89

Incoming: Also c1cnc2c(c1)ccc1cccnc12 ?
Outgoing: -23.3

Incoming: Also O=C(Nc1ccc([N+](=O)[O-])cc1Cl)c1cc(Cl)ccc1O [Niclosamide] ?
Outgoing: -26.8

Incoming: Also COc1cc2c(cc1OC)-c1c/c(=N\c3c(C)cc(C)cc3C)n(C)c(=O)n1CC2 [Trequinsin hydrochloride] ?
Outgoing: 44

Incoming: Also COc1ccc2nc([S@@+]([O-])Cc3ncc(C)c(OC)c3C)[nH]c2c1 ?
Outgoing: 35.7

Incoming: Also O=c1sn(-c2cccc3ccccc23)c(=O)n1Cc1ccccc1 ?
Outgoing: -0.265

Incoming: Also CN(C)CCCn1cc(C2=C(c3c[nH]c4ccccc34)C(=O)NC2=O)c2ccccc21 ?
Outgoing: -4.1

Incoming: Also Cc1cc2c(C(C)C)c(O)c(O)c(C=O)c2c(O)c1-c1c(C)cc2c(C(C)C)c(O)c(O)c(C=O)c2c1O ?
Outgoing: -12.2

Incoming: Also O.O.O.OO.OO.[K+].[OH-].[V].c1cnc2c(c1)ccc1cccnc12 ?
Outgoing: -21.9

Incoming: Also NC(=O)c1cccnc1 ?
Outgoing: -3.22

Incoming: Also Oc1c(Cl)cc(Cl)c(Cl)c1Cc1c(O)c(Cl)cc(Cl)c1Cl ?
Outgoing: -61.3

###

test system: human spermatozoa; experiment: acrosome-reacted (PNA+) sperm after agonist cocktail, percent change vs DMSO (capacitating); higher = more of the measured sperm population than DMSO, for viability, fewer PI-positive (dead) cells than DMSO; conditions: incubation time: 3h; 29.9 µM; capacitating + agonist cocktail 1h
Property Name: acrosome-reacted
// unit must come after the numeric part

Consider the reported acrosome-reacted for these compounds:
Compound	Property Name	Result
c1ccc2c(c1)SCc1c-2[nH]c2ccccc12	acrosome-reacted	-34.5%
Cn1c(=O)c2c(-c3ccccc3)n3c(c2n(C)c1=O)[C@H](c1ccc(Br)o1)Oc1ccc(C(=O)O)cc1-3	acrosome-reacted	12.2%
CNc1ccc2oc(C[C@H]3O[C@@]4(CC[C@H]3C)O[C@H]([C@H](C)C(=O)c3ccc[nH]3)[C@H](C)C[C@H]4C)nc2c1C(=O)O	acrosome-reacted	106%
COC(=O)c1c(C)[nH]c(C)c1C(=O)c1ccccc1Cc1ccccc1	acrosome-reacted	48.8%

Incoming: Please look up its acrosome-reacted: c1cnc2c(c1)ccc1cccnc12
Outgoing: 9.76%

Incoming: Also CC(C)(C)c1ccc(S(=O)(=O)Nc2ccc(OC(F)(F)F)c(F)c2-c2ccc(C(=O)O)c3ncccc23)cc1F ?
Outgoing: -1.79%

Incoming: Also COc1cc2nc(N(C)CCCNC(=O)C3CCCO3)nc(N)c2cc1OC (stereo unspecified) ?
Outgoing: 0.779%

Incoming: Also Cc1ccc(S(=O)(=O)c2c(N)n(CC(O)c3ccc([N+](=O)[O-])cc3)c3nc4ccccc4nc23)cc1 (stereo unspecified) ?
Outgoing: 49.7%

Incoming: Also C[C@]1(O)C[C@@H](c2nc(-c3ccc4ccc(-c5ccccc5)nc4c3)c3c(N)nccn32)C1 ?
Outgoing: 113%

Incoming: Also C=CC[C@@H]1/C=C(\C)C[C@H](C)C[C@H](OC)[C@H]2O[C@@](O)(C(=O)C(=O)N3CCCC[C@H]3C(=O)O[C@H](/C(C)=C/[C@@H]3CC[C@@H](O)[C@H](OC)C3)[C@H](C)[C@@H](O)CC1=O)[C@H](C)C[C@@H]2OC ?
Outgoing: -24%

Incoming: Also Oc1c(Cl)cc(Cl)cc1Sc1cc(Cl)cc(Cl)c1O ?
Outgoing: -1.64%

###

tested on: human spermatozoa; experiment: total motile sperm, percent change vs DMSO (non-capacitating); higher = more of the measured sperm population than DMSO, for viability, fewer PI-positive (dead) cells than DMSO; conditions: incubation time: 6h incubation, 9.99 µM
Where a name gives a salt, the structure may show the parent alone.
Property Name: total motile sperm

Consider the reported total motile sperm for these molecules:
> print(dat)
                                   molecule       property.name  result
1           c1ccc2c(c1)SCc1c-2[nH]c2ccccc12  total motile sperm  -54.6%
2  O.O.O.OO.OO.[K+].[OH-].[V].c1cnc2c(c1)ccc1cccnc12  total motile sperm   -4.6%
3       Oc1c(Cl)cc(Cl)cc1Sc1cc(Cl)cc(Cl)c1O  total motile sperm   2.41%

Incoming: Please look up its total motile sperm: CN(c1ccccc1CNc1nc(Nc2ccc3c(c2)CC(=O)N3)ncc1C(F)(F)F)S(C)(=O)=O
Outgoing: -11%

Incoming: Also CCc1cc(Nc2nccc(-c3c(-c4ccc(OC)c(C(=O)Nc5c(F)cccc5F)c4)nc4ccccn34)n2)c(OC)cc1N1CCC(N2CCN(S(C)(=O)=O)CC2)CC1 ?
Outgoing: -6.63%

Incoming: Also N=C(N)Nc1nc(-c2ccc(Cl)cc2)cs1 [n-[4-(4-Chlorophenyl)-1,3-thiazol-2-yl]guanidine] ?
Outgoing: -0.743%

Incoming: Also Cc1[nH]c(/C=C2\C(=O)Nc3ccc(S(=O)(=O)Cc4c(Cl)cccc4Cl)cc32)c(C)c1C(=O)N1CCC[C@@H]1CN1CCCC1 ?
Outgoing: -12.2%

Incoming: Also CNc1ccc2oc(C[C@H]3O[C@@]4(CC[C@H]3C)O[C@H]([C@H](C)C(=O)c3ccc[nH]3)[C@H](C)C[C@H]4C)nc2c1C(=O)O ?
Outgoing: -92%

Incoming: Also O=S(=O)(NCCNC/C=C/c1ccc(Br)cc1)c1cccc2cnccc12 [H 89 dihydrochloride] ?
Outgoing: 2.24%

Incoming: Also CCCCCCOC(=O)[C@]1(O)C[C@@H]2O[C@@]1(C)n1c3ccccc3c3c4c(c5c6ccccc6n2c5c31)C(=O)NC4 ?
Outgoing: 5.3%

Incoming: Also CO[C@H]1[C@@H](OC)C[C@H](C)[C@@H](OC)C2=CC(=O)C=C(NC(=O)/C(C)=C/C=C/[C@H](OC)[C@@H](OC(N)=O)/C(C)=C/[C@@H]1C)C2=O ?
Outgoing: -11.7%

Incoming: Also Nc1nonc1C(=O)c1cccc(OCc2nc3ccccc3[nH]2)c1 ?
Outgoing: 3.96%

Incoming: Also COc1cc2ncn(-c3cc(OCc4ccccc4C(F)(F)F)c(C(N)=O)s3)c2cc1OC ?
Outgoing: -30.1%

Incoming: Also CC(C)C(C(=O)OC(C#N)c1cccc(Oc2ccccc2)c1)c1ccc(Cl)cc1 (centres undefined) [Fenvalerate] ?
Outgoing: -6.57%

###

Each entry below carries its recorded HepG2 toxicity.
system: HepG2; experiment: HepG2 toxicity (resazurin), effect normalised to DMSO (DMSO = 0); higher = more features changed / larger toxic effect; conditions: incubation time: 70h incubation; 30 µM
Record the value in %, omitting the unit from your answer.

> print(dat)
                                   compound   property.name  quantitative.result
1  CCCCC/C=C\C/C=C\C/C=C\C/C=C\CCCC(=O)NCCO [Anandamide]  HepG2 toxicity                -4.04

Incoming: // map CCCCN1C[C@@H](O)[C@H](O)[C@H](O)[C@@H]1CO to recorded HepG2 toxicity (system: HepG2)
Outgoing: -4.38

Incoming: Also NC(=O)c1cc(-c2ccc(S(=O)(=O)[C@H]3CC[C@H](Nc4ccc(C(F)(F)F)cn4)CC3)cc2)ccn1 ?
Outgoing: 97.6
